Where these numbers come from: patent US12365687B2

Target: α2β2γ1 GABAA receptor subtype (Homo sapiens (Human), UniProt P47869+Q8N1C3)
Test: Two-electrode voltage clamp electrophysiology in Xenopus oocytes expressing GABAA receptors (modulation of GABA EC20 current)
Format: cell-based
Conditions: Xenopus oocytes expressing α2β2γ1; compound at approx. 30-fold its Ki α2β2γ1; GABA EC20 current
reported-endpoint: Fold increase h-GABA-A α2β2γ1 oocyte @ 30-fold Ki

INSERT INTO assay_data (molecule, experimental_target, recorded_number) VALUES
  ('Cc1c(C(=O)NC[C@@H](C)O)nc2n1-c1ccc(C(F)(F)F)c(Cl)c1C(c1ncccc1F)=N[C@H]2C', 'α2β2γ1 GABAA receptor subtype (Homo sapiens (Human), UniProt P47869+Q8N1C3)', 2.48),
  ('C[C@@H]1N=C(c2ncccc2F)c2c(ccc(C(F)(F)F)c2Cl)-n2nc(C(=O)N3CCC3)nc21', 'α2β2γ1 GABAA receptor subtype (Homo sapiens (Human), UniProt P47869+Q8N1C3)', 2.40),
  ('C[C@@H]1N=C(c2c(F)cccc2F)c2c(ccc(C(F)(F)F)c2Cl)-n2nc(C(=O)NN3CCCC3)nc21', 'α2β2γ1 GABAA receptor subtype (Homo sapiens (Human), UniProt P47869+Q8N1C3)', 2.20),
  ('Cc1cnc2n1-c1ccc(C(F)(F)F)c(Cl)c1C(c1c(F)cccc1F)=N[C@H]2C', 'α2β2γ1 GABAA receptor subtype (Homo sapiens (Human), UniProt P47869+Q8N1C3)', 1.49),
  ('C[C@@H]1N=C(c2c(F)cccc2F)c2c(ccc(Cl)c2Cl)-n2nc(OC3COC3)nc21', 'α2β2γ1 GABAA receptor subtype (Homo sapiens (Human), UniProt P47869+Q8N1C3)', 1.44),
  ('Cc1nc2n(n1)-c1ccc(Cl)c(Cl)c1C(c1ncccc1F)=N[C@H]2C', 'α2β2γ1 GABAA receptor subtype (Homo sapiens (Human), UniProt P47869+Q8N1C3)', 2.75),
  ('Cc1cn2c(n1)[C@H](C)N=C(c1ncccc1F)c1c-2ccc(C(F)(F)F)c1Cl', 'α2β2γ1 GABAA receptor subtype (Homo sapiens (Human), UniProt P47869+Q8N1C3)', 2.49),
  ('C[C@@H]1N=C(c2ncccc2F)c2c(ccc(Cl)c2Cl)-n2nc(C(=O)N3CC[C@@H](F)C3)nc21', 'α2β2γ1 GABAA receptor subtype (Homo sapiens (Human), UniProt P47869+Q8N1C3)', 1.98),
  ('CC1CN(C(=O)c2nc3n(n2)-c2ccc(Cl)c(Cl)c2C(c2ncccc2F)=N[C@H]3C)C1', 'α2β2γ1 GABAA receptor subtype (Homo sapiens (Human), UniProt P47869+Q8N1C3)', 1.84),
  ('C[C@@H]1N=C(c2c(F)cccc2F)c2c(ccc(Cl)c2Cl)-n2nc(C(=O)NC3COC3)nc21', 'α2β2γ1 GABAA receptor subtype (Homo sapiens (Human), UniProt P47869+Q8N1C3)', 1.58),
  ('C[C@@H]1N=C(c2ncccc2F)c2c(ccc(C(F)(F)F)c2Cl)-n2cc(C(=O)N3CC(F)C3)nc21', 'α2β2γ1 GABAA receptor subtype (Homo sapiens (Human), UniProt P47869+Q8N1C3)', 2.65),
  ('CC1CN(C(=O)c2cn3c(n2)[C@H](C)N=C(c2ncccc2F)c2c-3ccc(C(F)(F)F)c2Cl)C1', 'α2β2γ1 GABAA receptor subtype (Homo sapiens (Human), UniProt P47869+Q8N1C3)', 2.36),
  ('C[C@@H]1N=C(c2c(F)cccc2F)c2c(ccc(Cl)c2Cl)-n2cc(C#N)nc21', 'α2β2γ1 GABAA receptor subtype (Homo sapiens (Human), UniProt P47869+Q8N1C3)', 1.75),
  ('C[C@@H]1N=C(c2c(F)cccc2F)c2c(ccc(C(F)(F)F)c2Cl)-n2nc(C(=O)N3CC(O)C3)nc21', 'α2β2γ1 GABAA receptor subtype (Homo sapiens (Human), UniProt P47869+Q8N1C3)', 2.12),
  ('C[C@@H]1N=C(c2c(F)cccc2F)c2c(ccc(Cl)c2Cl)-n2nc(C(=O)N3CC(C#N)C3)nc21', 'α2β2γ1 GABAA receptor subtype (Homo sapiens (Human), UniProt P47869+Q8N1C3)', 1.67);
